# test.summary: NCI Yeast Anticancer Drug Screen. Data for the mec2-1 strain (AID 157)
# condition.parameters: S. cerevisiae mec2-1 strain, at 50.0 µM, hits give high values
This is part of a sample that, as a whole, favours compounds with a hit. Of some 79,000 tested, about 15% had one in any assay.
For each of the compounds below, state its growth inhibition.
Dear colleague, please return just the value in %, with no unit written.

Entry CSc1nc(Cl)nc2c1nc(SC)n2-c1ccccc1 , growth inhibition reported as 7.95

Entry COc1ccc(Cc2cc3c(cc2OCC(=O)N2CCOCC2)OCO3)cc1 , growth inhibition reported as -9.5

Entry O=c1[nH]c2cc([N+](=O)[O-])ccc2nc1/C=C(\O)c1ccc(Cl)cc1 , growth inhibition reported as -22.8

Entry CCCCCCCCCCCCCCCCOc1ccc(N)cc1 , growth inhibition reported as 6.05

Entry CN1CCC(OC(=O)C(O)C2CCCCC2)CC1 (stereo not drawn) , growth inhibition reported as 23

Entry [O-]c1csc2n(-c3ccccc3)c3ccccc3[n+]12 , growth inhibition reported as -16

Entry C=CCOC(=O)/C=C/C , growth inhibition reported as 2.7

Entry CCOc1ccc(NC(=O)C2=C(C)NC(C)=C(C(=O)Nc3ccc(OCC)cc3)C2c2ccc(O)c(OC)c2)cc1 , growth inhibition reported as 3

----------
# test.summary: NCI Yeast Anticancer Drug Screen. Data for the bub3 strain (AID 167)
# condition.parameters: S. cerevisiae bub3 mutant strain, at 50.0 µM, hits give high values
# Protocol: Growth inhibition of yeast strains with defined genetic alterations is measured as a screen for potential anti-cancer activity. Selected strains with alterations in DNA damage repair or cell cycle control were exposed to compounds and growth inhibition was measured relative to vehicle treated controls. The strain used in this assay is bub3
This is part of a sample that, as a whole, favours compounds with a hit. Of some 79,000 tested, about 15% had one in any assay.
quantity: growth inhibition (%)
Dear colleague, please return just the value in %, with no unit written.

Entry Cc1cc(-c2ccccc2)c(C#N)c(=O)[nH]1 , growth inhibition reported as 3.65

Entry C1CCC(C2CCCC[N-]2)[N-]C1.[Cl][Cu][Cl] (stereo not drawn) , growth inhibition reported as -4.85

Entry C[N+](C)(C)C1CCC1 , growth inhibition reported as -15.1

Entry O=c1[nH]c(=O)n(C2CC(O)C(CO)O2)cc1Cl (stereo not drawn) , growth inhibition reported as 1.45

Entry COc1ccc(C(C)(O)c2cc3ccccc3n2S(=O)(=O)c2ccccc2)cc1 (stereo not drawn) , growth inhibition reported as 0.75

Entry O=C(O)c1ccc2c(Cl)ccc3c2c1CC3 , growth inhibition reported as -26.2

Entry ClC1=Cc2cccc3cccc1c23 , growth inhibition reported as 12.4

Entry COc1cc(/C=C2\C=Nc3ccccc32)ccc1O , growth inhibition reported as 40.3

Entry O=C(O)c1cc(=O)[nH]c(=S)[nH]1 , growth inhibition reported as -9.25

Entry O=C(Nc1cc(-c2ccccc2)nn1-c1ccccc1)c1ccc(Cl)cc1 , growth inhibition reported as -29.1

Entry COc1cc([N+](=O)[O-])c(C=O)c(C(=O)O)c1OC , growth inhibition reported as 1.75

Entry Cc1nc(N)c2c(ncn2C2OC(CO)C(O)C2O)n1 (stereo not drawn) , growth inhibition reported as -9.15

Entry CC(=O)OCCCC(CCCOC(C)=O)OC(C)=O , growth inhibition reported as 5.25

Entry O=C(NP(=O)(O)NC(Cc1ccccc1)C(=O)O)OCc1ccccc1 (stereo not drawn) , growth inhibition reported as 1.8

Entry CC(=O)CC(=O)Nc1ccc(-c2ccccc2)cc1 , growth inhibition reported as -6.9

Entry OC(C1CCCCC1)(C1CCC2(CCCCC2)CC1)C1CCCC2CCCCC21 (stereo not drawn) , growth inhibition reported as 1.35

Entry O=C(O)[Si](c1ccccc1)(c1ccccc1)c1ccccc1 , growth inhibition reported as 20.1

Entry CC(CC[C@@]1(C)C(=O)CCC2O[C@]21C)[C@H]1C[C@@H](c2ccoc2)OC1=O (stereo partly drawn) , growth inhibition reported as -4.8

Entry O=S1(=O)C2CCC(Br)C1CCC2Br (stereo not drawn) , growth inhibition reported as -2.65

Entry CCOc1cccc(C=Nc2ccccc2SSc2ccccc2N=Cc2cccc(OCC)c2O)c1O , growth inhibition reported as 68.6

Entry C/C(N=NS(=O)(=O)c1c(C)cc(C)cc1C)=C1\C=CC=CN1O , growth inhibition reported as 4.15

Entry CCCc1ccc(OCC(=O)O)c(OC)c1 , growth inhibition reported as -22.5

Entry COc1cc2c(c(OC)c1OC)C(=O)[C@@H](O)[C@H]2N , growth inhibition reported as -23.8

Entry CCCc1cc(-c2ccc(-c3cc(CCC)c(C=O)[nH]3)s2)[nH]c1C=O , growth inhibition reported as -20.1

Entry O=[N+]([O-])c1ccc2nc(C(F)(F)F)cc(Cl)c2c1 , growth inhibition reported as -1.1

Entry COc1cc(CCC(C)=O)ccc1OC(=O)c1c(-c2c(F)cccc2Cl)noc1C , growth inhibition reported as 10.3

Entry CCc1c(COC(=O)NC)c(COC(=O)NC)cc2c1[nH]c1ccccc12 , growth inhibition reported as -41

Entry CCC(c1ccccc1)C(C(=O)O)C(=O)O (stereo not drawn) , growth inhibition reported as 6.35

Entry CCOc1ccc(CCC(=O)O)cc1 , growth inhibition reported as -6.1

Entry c1ccc2c(c1)[nH]c1c2ncc2[nH]c3ccccc3c21 , growth inhibition reported as -1.8

Entry NC(CO)C(O)C(O)C(O)CO (stereo not drawn) , growth inhibition reported as 2.35

Entry O=C(Nc1cc(C(F)(F)F)ccc1Cl)c1ccccc1F , growth inhibition reported as 34.9

Entry O=c1sccc2ccccc12 , growth inhibition reported as 10.3

Entry O=C1CC[C@@H](S(=O)(=O)c2ccccc2)[C@@H](/C=C/c2ccccc2)O1 , growth inhibition reported as -10.7

Entry NC(=O)C1=NNc2ccccc2C(=O)N1c1ccccc1 , growth inhibition reported as 6.9

Entry O=C(NCC(F)(F)C(F)(F)C(F)(F)C(F)(F)C(F)(F)C(F)(F)C(F)(F)F)Oc1ccccc1 , growth inhibition reported as -2.05

Entry C(=C(Sc1ccccc1)Sc1ccccc1)C(Sc1ccccc1)c1ccccc1 (stereo not drawn) , growth inhibition reported as 20.7

Entry O=C(Nc1cccc(Cl)c1)OC1C=CCC1 (stereo not drawn) , growth inhibition reported as -2.15

Data provenance: PubChem BioAssay (NCI)
